# System: HepaRG spheroids
# PROTOCOL TEXT: Combined HCI (HCS) and cellular ATP 3D assay in HepaRG spheroids
# TEST SETTINGS: HepaRG; all endpoints; cut-off <10 uM
MEASURED METRIC: HepaRG <10 uM All

CC(C)(C)NCC(O)COc1cccc2c1CC(O)C(O)C2 (centres unmarked) | -ve
Nc1cc(N2CCCCC2)nc(N)[n+]1[O-] | -ve
CN1CCN(C2=Nc3cc(Cl)ccc3Nc3ccccc32)CC1 | +ve (<10 uM)
CC[C@H]1OC(=O)[C@H](C)[C@@H](O[C@H]2C[C@@](C)(OC)[C@@H](O)[C@H](C)O2)[C@H](C)[C@@H](O[C@@H]2O[C@H](C)C[C@H](N(C)C)[C@H]2O)[C@](C)(O)C[C@@H](C)C(=O)[C@H](C)[C@@H](O)[C@]1(C)O | -ve
Cn1cnc([N+](=O)[O-])c1Sc1ncnc2nc[nH]c12 | +ve (<10 uM)

Quick one: give me HepaRG <10 uM All for each item below, same order please.
1. CCCCc1oc2ccccc2c1C(=O)c1cc(I)c(OCCN(CC)CC)c(I)c1
2. CCN(CC)CCNC(=O)c1c(C)[nH]c(/C=C2\C(=O)Nc3ccc(F)cc32)c1C
3. CCN(CC)C(=O)/C(C#N)=C/c1cc(O)c(O)c([N+](=O)[O-])c1

1: +ve (<10 uM); 2: +ve (<10 uM); 3: -ve

The measurements presented in this section are drawn from paper PMC7395068.
